# target.or.system: human JAK3 kinase domain (JH1) (Homo sapiens, UniProt P52333)
# Construct: recombinantly generated catalytic kinase (also known as JH1) domain of human JAK1, JAK2, JAK3 and TYK2
# Sequence (P52333 822-1111 limits assumed): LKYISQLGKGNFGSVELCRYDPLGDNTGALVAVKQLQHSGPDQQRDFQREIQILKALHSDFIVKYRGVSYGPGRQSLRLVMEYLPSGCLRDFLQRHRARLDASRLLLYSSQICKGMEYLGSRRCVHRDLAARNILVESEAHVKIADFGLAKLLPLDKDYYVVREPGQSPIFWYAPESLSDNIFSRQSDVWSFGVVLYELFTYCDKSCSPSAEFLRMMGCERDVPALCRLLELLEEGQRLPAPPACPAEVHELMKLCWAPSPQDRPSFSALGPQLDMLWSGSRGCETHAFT
# measurement.notes: JH1 biochemical assay for JAK3 (ADP-Glo kinase assay, recombinant JH1 catalytic domain, JAK3-974 peptide, 4 μM ATP)
# condition.label: JH1 kinase domain, ADP-Glo
Counter-ions that a name gives are not always drawn.
value.kind: IC50

Q: Give IC50; test system human JAK3 kinase domain (JH1) (Homo sapiens, UniProt P52333); compound `C[C@@H]1CN(c2ccnn3cc(-c4cncc(C(F)(F)F)c4)cc23)C(=O)[C@]1(C#N)C1CC1`
Result: 1 to 5 µM

Q: Give IC50; test system human JAK3 kinase domain (JH1) (Homo sapiens, UniProt P52333); compound C[C@@H]1CN(c2ccnn3cc(-c4ccc(C(=O)N(C)C)cn4)cc23)C(=O)[C@]1(C#N)C1CC1 [Example 124, trifluoroacetate]
Result: 0.1 to 1 µM

Q: Give IC50; test system human JAK3 kinase domain (JH1) (Homo sapiens, UniProt P52333); compound CC(O)c1ccc(-c2cc3c(N4C[C@@H](C)[C@@](C#N)(C5CC5)C4=O)ccnn3c2)nc1 (stereo partly drawn) [Example 130, trifluoroacetate]
Result: 0.1 to 1 µM
